Please go through the items and note down their fluorescence slope.
# SYSTEM_UNDER_TEST: Muscarinic acetylcholine receptor M4 (Homo sapiens) (UniProt P08173)
# Sequence (P08173 whole entry, looked up): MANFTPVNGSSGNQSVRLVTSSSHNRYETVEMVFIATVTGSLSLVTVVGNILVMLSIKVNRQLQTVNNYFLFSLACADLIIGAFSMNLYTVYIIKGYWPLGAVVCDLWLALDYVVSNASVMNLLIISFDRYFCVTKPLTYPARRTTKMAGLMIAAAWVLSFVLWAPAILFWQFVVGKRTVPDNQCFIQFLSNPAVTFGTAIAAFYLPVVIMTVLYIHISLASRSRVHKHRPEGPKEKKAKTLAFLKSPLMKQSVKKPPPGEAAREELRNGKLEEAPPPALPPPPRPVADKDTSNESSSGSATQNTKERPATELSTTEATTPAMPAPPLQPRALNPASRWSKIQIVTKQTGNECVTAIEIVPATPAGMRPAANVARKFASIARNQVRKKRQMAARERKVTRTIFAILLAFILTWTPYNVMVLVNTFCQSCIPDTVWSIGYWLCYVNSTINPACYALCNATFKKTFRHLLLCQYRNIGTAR
# ASSAY_COMMENT: M4-linked GIRK flux change, two-sided – cell-based, HEK293 M4/GIRK, thallium flux, BTC-AM, M4 allosteric agonist project, primary screen (AID 625);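 note: thallium influx through GIRK channels coupled to M4 in HEK293 cells with BTC-AM dye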
# RUN_PARAMETERS: at 10 µM, actives lie on both sides
The answer should be written as a number, with no unit following it.

Please report the recorded fluorescence slope for `O=C(Nc1ccccc1C(=O)N1CCCCCC1)c1cccc(S(=O)(=O)N2CCOCC2)c1` .
0.00535

I have this compound here, COCCn1nnnc1C(C(C)C)N(Cc1cccnc1)Cc1ccccc1Cl (stereo not drawn) , and I need its recorded fluorescence slope.
0.00529

Consider the compound shown here: `CCOC(=O)c1nnn(-c2nonc2N)c1CN1CCc2ccccc2C1` What is its recorded fluorescence slope?
0.00671

Consider the compound shown here: `Cc1nc2nc(Cc3ccccc3)[nH]n2c(=O)c1Cc1ccccc1` What is its recorded fluorescence slope?
0.0029

Query (compound): `CCn1c(=O)cc(SCC(=O)NCCN2CCN(Cc3ccccc3)CC2)c2ccccc21` ; field requested: fluorescence slope
0.00537

fluorescence slope lookup needed for `CCOc1ccccc1N1CCN(S(=O)(=O)c2cccc3nsnc23)CC1` , thanks.
0.00356

Entry COc1ccc(C(NC(=O)c2ccco2)c2ccc(OC)c(OC)c2)cc1 (stereo not drawn) has what fluorescence slope?
0.00496

# get_value(readout='fluorescence slope', item= `Cc1ccc(C)c(N2C(=O)CN=C2Nc2ccccc2Cl)c1` )
0.00593

Which measured fluorescence slope value corresponds to `Cc1nnc(SCC(=O)Nc2ccc3c4c(cccc24)CC3)n1C` ?
0.00568

For the compound shown here, `CCOC(=O)C1CCN(S(=O)(=O)c2cc(Cl)c(C)cc2OC)CC1` , give the reported fluorescence slope.
0.00585

// returns reported fluorescence slope for input `Cc1cccc(NCc2ccccc2O)c1`
0.00568

Please report the recorded fluorescence slope for `CCC(=O)OC1(C#CCOc2ccc(OC)cc2)CCN(C)CC1` .
0.00292

Returns the measured fluorescence slope for the input compound. Input: `CCCC(CCC)n1[nH]c(=O)c2c(C)cc(C)nc21`
0.00554

Name the reported fluorescence slope value associated with the compound `COc1ccc(Br)cc1C(=O)Nc1nnn(C)n1`
0.00661

Query (compound): `Cc1cc(C)c2c(n1)nn1c(N3CCN(c4ccccc4C)CC3)cc(C)nc21` ; field requested: fluorescence slope
0.00576

Tell me the measured fluorescence slope of `Cc1nc2ccccn2c1P(=O)(N1CCCCC1)N1CCCCC1` , please.
0.00464

Name the recorded fluorescence slope for `Cc1n[nH]c(C)c1S(=O)(=O)N1CCCCCC1` .
0.00614

I'd like to know its fluorescence slope. The compound in question is O=C(O)C1CC(=O)N(Cc2ccccc2)C1 (stereo not drawn)
0.00382

What value of measured fluorescence slope is listed for `CC(=O)Nc1ccc2nc(-c3cccnc3)[nH]c2c1` ?
0.00606

Quick check: fluorescence slope of `COCc1cc(C)nc(SCC(=O)Nc2cccc(C)c2C)c1C#N` ?
0.0109

fluorescence slope lookup needed for Cc1c(NC(=O)C(C)OC(=O)COc2cccc3c2OC(C)(C)C3)c(=O)n(-c2ccccc2)n1C (stereo not drawn) , thanks.
0.00305

What measured fluorescence slope goes with `CCOC(=O)c1cc2sccc2n1CC(=O)Nc1ccc2c(c1)OCCO2` ?
0.00667

If you can, please state the reported fluorescence slope value of CC1N=C2c3ccccc3N=C(SCc3cc(=O)n4cc(Cl)ccc4n3)N2C1=O (stereo not drawn) .
0.00478

Measured values drawn from PubChem BioAssay for this set.
